target: T1, recombinant alipidated human ApoE4 (human, UniProt P02649 19-317); assay: SPR (Biacore T200), biotinylated ApoE4 captured on anti-biotin mAb chip, antibody injected, 1:1 fit
T1 construct: mature; full length recombinant protein made in E. coli or bought; biotinylated for SPR; position 112 is counted on the mature protein, not on the precursor entry; also called recApoE; non-lipidated ApoE4
T1 sequence (P02649 19-317 C130R): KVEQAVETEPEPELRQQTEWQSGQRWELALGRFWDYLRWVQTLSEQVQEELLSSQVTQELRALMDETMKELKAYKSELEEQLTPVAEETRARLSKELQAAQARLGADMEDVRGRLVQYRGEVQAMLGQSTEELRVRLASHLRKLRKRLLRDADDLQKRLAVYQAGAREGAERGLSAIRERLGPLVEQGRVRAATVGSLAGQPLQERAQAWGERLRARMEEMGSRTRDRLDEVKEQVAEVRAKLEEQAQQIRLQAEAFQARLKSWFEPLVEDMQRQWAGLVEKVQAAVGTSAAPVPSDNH
reported-endpoint: kon (M⁻¹ s⁻¹)

binder="HJ151 (antibody, V domains shown, murine monoclonal antibody from hybridoma; also called HJ151B (biotinylated)) VH: QVQLQQSGAELVRPGASVTLSCKASGYTFTDYEMHWVKQTPVHGLEWIGVIDPEKGGTAYNQKFKGKAILTADKSSSTAYMDLRSLTSEDSAVYYCLKDSWGQGTTLTVSS VL: DVLMTQTPLSLPVSLGDQASISCRSSQTIVHSDGNTYLEWYLQKPGQSPKLLIYKVSNRFSGVPDRFSGSGSGTYFTLKISRVEAEDLGVYYCFQGSHVPCTFGGGTKLEIKR" value_measured=19700
binder="HJ1518 (antibody, V domains shown, murine monoclonal antibody from hybridoma) VH: QVQLQQSGPELVKPGASVKISCKASGYTFSDYYINWVKQRPGQGLEWIGWIFPGSGSSYYNEKFKGKATLTVDKSSRTAYMLLSSLTSEDSAVYFCARYYGSSPFAYWGQGTLVTVST VL: DVLMTQSPLSLPVSLGDQASISCRSSQSIVHRNGNTYLEWYLQKPGQSPKLLIYKVSNRFSGVPDRFSGSGSGTDFTLKISRVEAEDLGVYYCFQGSHVPYTFGGGTKLEIRR" value_measured=45900
binder="HJ154 (antibody, V domains shown, murine monoclonal antibody from hybridoma; also called HJ154B (biotinylated)) VH: QVQLQQPGTEFVMSGASVMLSCKASGYIFTNYWLHWVKQRPGHGLEWIGEIDPSDSYSICNDNFKGKSTLTVDKSSSTAYMQLSSLTSEDSAVYYCAGSLGRVGLAYWGQGTLVTVST VL: QIVLTQSPAIMSASPGEKVTMSCSASSSVSNMYWYQQKPGSSPKSWIYRTSNLASGVPARFSGSGSGTSYSLTISNMEAEDAATYYCQHYQNYPLTFGAGTKLELKR" value_measured=516000
